System: U2OS
MEASUREMENT_NOTES: Multiplex assay against U2OS
Type: toxicity, cell-based
STATED_CONDITIONS: human, 48 h, 10 µM, compound concentration 10 uM, replicate 2
Field: Total Cell Count. Provide a value for each of the compounds that follow.
Answers are plain numbers.

Items follow; give Total Cell Count for each.
1. CCCCC(=O)N(Cc1ccc(-c2ccccc2-c2nnn[nH]2)cc1)[C@H](C(=O)O)C(C)C
2. CC(C)COc1ccc(CNC(=O)N(Cc2ccc(F)cc2)C2CCN(C)CC2)cc1 [PIMAVANSERIN]
3. Cc1c(CC(=O)O)c2cccnc2n1Cc1ccc(S(C)(=O)=O)cc1C(F)(F)F [FEVIPIPRANT]
4. O=C(CCCc1ccccc1)Nc1nc2ccccc2c(=O)s1
5. N#Cc1cc(F)cc(-c2nc(-c3ccc(F)cn3)no2)c1
6. CN[C@@H](C)C(=O)N[C@H](C(=O)N1CCC[C@H]1C(=O)Nc1snnc1-c1ccccc1)C1CCCCC1 [GDC-0152]
7. CCc1cc2cc(NS(=O)(=O)c3ccc(C#N)cc3)ccc2n(CC)c1=O

Marked response:
[188, 146, 158, 175, 344, 138, 248]

Exam item: // returns reported Total Cell Count for input Cc1sc2c(c1C)C(c1ccc(Cl)cc1)=N[C@@H](CC(=O)NCCCCCCCCNC(=O)COc1cccc3c1C(=O)N(C1CCC(=O)NC1=O)C3=O)c1nnc(C)n1-2 (stereo partly drawn)
Marked response: 179
